Test system: K24384-001-R-PDC complex spheroids, viability;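 also: spheroids exposed to compounds for seven days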
Experiment: Anticancer human tumor K24384-001-R-PDC patient-derived pancreatic adenocarcinoma cell line growth inhibition [GQUAD]
Settings: curve of first compound; second compound 3.16 µM
Excerpt: DNA G-quadruplex Stabilizer Agents in Combinations in Complex Spheroids A high-throughput screen of multi-cell type tumor spheroids was designed to identify active combinations of DNA G-quadruplex stabilizer agents and targeted small molecules. […] Compounds. […] If the clinical Cmax for an agent had not been determined, the highest concentration tested was 10 microM. […]
measured_attribute: IC50

C=CCn1c(=O)c2cnc(Nc3ccc(N4CCN(C)CC4)cc3)nc2n1-c1cccc(C(C)(C)O)n1 + Cc1cnc(CNC(=O)c2c(=O)c3ccc(N4CCCN(C)CC4)nc3n3c2sc2ccccc23)cn1
< 31.6 nM
Cc1cccc(N(C)C(=O)C2C(O)CCN2c2nc(C)cc(C(F)(F)F)c2C#N)c1 (stereo unspecified) + Cc1[nH]c2ccc(F)cc2c1-c1nc2c3cccnc3c3ncccc3c2[nH]1
> 10000 nM
CC(=O)O[C@H]1C(=O)[C@@]2(C)[C@H]([C@H](OC(=O)c3ccccc3)[C@]3(O)C[C@H](OC(=O)[C@H](O)[C@@H](NC(=O)c4ccccc4)c4ccccc4)C(C)=C1C3(C)C)[C@]1(OC(C)=O)CO[C@@H]1C[C@@H]2O + Cc1[nH]c2ccc(F)cc2c1-c1nc2c3cccnc3c3ncccc3c2[nH]1
< 31.6 nM
Cn1ncnc1[C@H]1c2n[nH]c(=O)c3cc(F)cc(c23)N[C@@H]1c1ccc(F)cc1 + CN(C)c1ccc(Nc2c3ccc(NC(=O)CCN4CCCC4)cc3nc3cc(NC(=O)CCN4CCCC4)ccc23)cc1
> 316 nM
C=CC(=O)N1CCN(c2nc(=O)n(-c3c(C)ccnc3C(C)C)c3nc(-c4c(O)cccc4F)c(F)cc23)C(C)C1 (stereo unspecified) + Cc1[nH]c2ccc(F)cc2c1-c1nc2c3cccnc3c3ncccc3c2[nH]1
> 10000 nM
CCCS(=O)(=O)Nc1ccc(F)c(C(=O)c2c[nH]c3ncc(-c4ccc(Cl)cc4)cc23)c1F + Cc1cnc(CNC(=O)c2c(=O)c3ccc(N4CCCN(C)CC4)nc3n3c2sc2ccccc23)cn1
< 31.6 nM
